# Tested on: UACC-257 melanoma
# assayProtocol: NCI-60 one-dose screen, 48 h
# measurementParameters: 10 µM unless noted
Compounds without any hit were thinned out: in the full panel of roughly 83,000, 20% have a hit. Active and inactive are the calls of the source. Rule for the calls: active = growth percent below 10; inactive = the rest.
Parameter call: string, one of active, inactive

Here's what some known entries look like.
Cc1ccc(C(=O)c2ccc(CC(=O)NN3C(=O)c4ccccc4C3=O)n2C)cc1 | inactive
COc1ccc(-c2cc(-c3ccccc3)nc(N3CCN(CCNc4ccnc5cc(Cl)ccc45)CC3)n2)cc1 | active
Cc1ccc2c(=O)cc(C(=O)Nc3sc4c(c3C(=O)NCc3cccnc3)CCCC4)oc2c1C | inactive
C=C1C(=O)O[C@H]2[C@H]1CC/C(COC(=O)/C=C/C(=O)OC/C1=C/CC[C@@]3(C)O[C@H]3[C@H]3OC(=O)C(=C)[C@@H]3CC1)=C\CC[C@@]1(C)O[C@@H]21 | inactive
C=C(C)[C@@H]1CCC[C@]2(C(=O)N3CCN(C)CC3)CC[C@]3(C)[C@@H](CC[C@@H]4[C@@]5(C)CC/C(=N\NC(=O)c6ccncc6)C(C)(C)[C@@H]5CC[C@]43C)[C@@H]12 | inactive

Query molecule follows.
Answer briefly: the call reported for "O=C1/C(=C\c2cccc3nccnc23)SC(=S)N1CCc1ccc(O)cc1" in this assay.
inactive

---

# Tested on: KM12 colon
# assayProtocol: NCI-60 one-dose screen, 48 h (100 = growth as untreated, 0 = no growth, -100 = all killed)
# measurementParameters: 10 µM unless noted
This is part of a sample that, as a whole, favours compounds with a hit. Of some 83,000 tested, about 20% had one in any assay.
observationType: growth (%)
One number for each entry, in %.

Guide cases for growth, answers given:
FC(F)(F)c1ccc(Cn2cc(CSc3nc4ccccc4s3)nn2)cc1 | 99
COc1ccc(-c2n[nH]c(=O)c3nc(NC(=S)Nc4ccc(Oc5ccccc5)cc4)sc23)cc1 | 93.8
O=C(O)c1ccc(-c2ccc(/C=N/Nc3nc(Nc4ccccc4)nc(N4CCCCC4)n3)o2)cc1 | 61.7
C=CCOC(=O)C1=C(C)N(CC)C(=O)NC1c1c(Cl)n(C)c2ccccc12 (configuration not stated) | 85.7
CCOC(=O)c1nn(CC(O)c2ccccc2)c(NC(=O)Nc2cccc(F)c2)c1C (configuration not stated) | 104
O=C1C(Nc2ccccn2)=C(I)C(=O)c2ncccc21 | -26.1

Hello, I would appreciate it if you could give growth for each entry below.
1. C#CCO[C@H]1CC(CC#C)(CC#C)C(=O)[C@@H]2[C@H]1[C@H]1C[C@@H]3[C@@]4(C)CCC[C@@](C)(C(=O)OC)[C@@H]4CC[C@@]23C=C1C(C)C
2. N#C/C(=C\c1ccc(-c2cccc(C(F)(F)F)c2)o1)c1ccccc1
3. CS(=O)(=O)Nc1cc(-c2ccc3ncc(C#N)c(Nc4ccc(F)c(Cl)c4)c3c2)cnc1Cl
4. C=C1C(=O)O[C@H]2[C@H]1CC/C(COC(=O)CSCSCC(=O)OC/C1=C/CC[C@@]3(C)O[C@H]3[C@H]3OC(=O)C(=C)[C@@H]3CC1)=C\CC[C@@]1(C)O[C@@H]21
5. CCOc1cccc(/C=N/NC(=O)c2cccc(Nc3ccnc(C(F)(F)F)c3)c2)c1O

1: 63.1; 2: 79.3; 3: 8.82; 4: 35.1; 5: 38.9

Entry source: PubChem BioAssay (NCI)
